// reported Fold Increase over UTC (caspase activity) per item
Test system: T47D cells
Experiment: Caspase-3 activity assay (apoptosis) in T47D cells
Conditions: T47D cells, 200 nM, 48 hours, relative to untreated control
In the oligonucleotide strings, read from the 5' end, every base follows the letter of its sugar. An asterisk marks phosphorothioate; unmarked linkages are phosphodiester. Other units and linkages are bracketed, terminal groups are in braces. A string of capitals states the bases alone. e = 2'-O-(2-methoxyethyl) (MOE); [5mC] = 5-methylcytosine; d = 2'-deoxy (DNA)
Enter the number alone.

Please review the following examples before continuing.
substance="328392 (eG*eA*eT*eT*eG*d[5mC]*dA*d[5mC]*dA*dT*d[5mC]*d[5mC]*dA*d[5mC]*dA*e[5mC]*eT*eG*eT*e[5mC]; antisense) [compound 328392]" assay_result=1.0
substance="328691 (e[5mC]*e[5mC]*e[5mC]*e[5mC]*eA*dT*d[5mC]*dT*dT*dA*dG*d[5mC]*dA*dT*d[5mC]*eT*eA*eA*eG*eG) [compound 328691]" assay_result=0.9

Now consider a different substance.
Fold Increase over UTC (caspase activity) for T47D cells with input 328643 (e[5mC]*eA*eT*eG*eA*dA*dG*dA*dA*dA*dG*dA*d[5mC]*dT*dG*eT*eA*eG*e[5mC]*e[5mC]; antisense) [compound 328643] equals 0.9

###

Tested on: aP2
Test: aP2 mRNA expression in adipocytes (real-time PCR)
Type: cell-based, human
Conditions: differentiating adipocytes transfected with oligomeric compound; Table 75
In the oligonucleotide strings, read from the 5' end, every base follows the letter of its sugar. An asterisk marks phosphorothioate; unmarked linkages are phosphodiester. Other units and linkages are bracketed, terminal groups are in braces. A string of capitals states the bases alone. e = 2'-O-(2-methoxyethyl) (MOE); [5mC] = 5-methylcytosine
observable: aP2 mRNA

In plain terms, 327936 (antisense eA*e[5mC]*eA*eG*e[5mC]*eT*eG*eG*eT*eT*eG*eA*eA*eG*eG*eG*eG*eA*e[5mC]*e[5mC]*eA*eA) [compound 327936] has a documented aP2 mRNA of 40 percentage of untreated control (UTC)

In plain terms, 327962 (antisense eG*e[5mC]*eT*eG*eA*eG*eA*eG*eT*eG*eT*eA*eG*eG*eA*eT*eG*eT*eT*eT*eA*e[5mC]*eA) [compound 327962] has a documented aP2 mRNA of 75 percentage of untreated control (UTC)

In plain terms, 327958 (antisense e[5mC]*e[5mC]*eG*eG*e[5mC]*eT*eG*e[5mC]*eA*eA*e[5mC]*eA*e[5mC]*eA*eA*eG*eA*e[5mC]*eA*e[5mC]*eG*eA) [compound 327958] has a documented aP2 mRNA of 10 percentage of untreated control (UTC)

In plain terms, 328118 (antisense eT*eA*eT*eT*eA*eT*e[5mC]*eA*eG*e[5mC]*eA*eT*e[5mC]*eT*eG*e[5mC]*eT*eT*eG*e[5mC]*eA) [compound 328118] has a documented aP2 mRNA of 74 percentage of untreated control (UTC)

In plain terms, 328092 (antisense eG*eG*eT*eA*eG*eG*eT*eG*eG*eA*eA*eT*eA*e[5mC]*eT*eA*eT*eA*eA*e[5mC]*eA) [compound 328092] has a documented aP2 mRNA of 74 percentage of untreated control (UTC)

In plain terms, 346909 (UCACCAAAACAUGGAAGCACUUA; all 2'-MOE, all phosphorothioate, methylation of C and T or U not given here) [compound 346909] has a documented aP2 mRNA of 68 percentage of untreated control (UTC)

In plain terms, 327916 (antisense eT*eG*eG*e[5mC]*eA*eT*eT*e[5mC]*eA*e[5mC]*e[5mC]*eG*e[5mC]*eG*eT*eG*e[5mC]*e[5mC]*eT*eT*eA*eA) [compound 327916] has a documented aP2 mRNA of 67 percentage of untreated control (UTC)

###

System: mir-15a pri-miRNA
Assay: mir-15a pri-miRNA expression in T47D cells (real-time RT-PCR)
Type: cell-based, human
Conditions: real-time RT-PCR
In the oligonucleotide strings, read from the 5' end, every base follows the letter of its sugar. An asterisk marks phosphorothioate; unmarked linkages are phosphodiester. Other units and linkages are bracketed, terminal groups are in braces. A string of capitals states the bases alone. e = 2'-O-(2-methoxyethyl) (MOE); [5mC] = 5-methylcytosine; d = 2'-deoxy (DNA)
observable: mir-15a pri-miRNA expression % UTC (% UTC)
Write the value in % UTC as a bare number.

Please review the following examples before continuing.
substance="356232 (eA*eA*eA*eT*eA*eT*eA*eT*eT*eT*eT*e[5mC]*eT*eT*e[5mC]*eA*eG*eA*eA*eG) [compound 356232]" observable="mir-15a pri-miRNA expression % UTC" assay_result=631
substance="116847 (antisense e[5mC]*eT*eG*e[5mC]*eT*dA*dG*d[5mC]*d[5mC]*dT*d[5mC]*dT*dG*dG*dA*eT*eT*eT*eG*eA) [compound 116847]" observable="mir-15a pri-miRNA expression % UTC" assay_result=132
substance="356231 (eT*eT*e[5mC]*eA*eG*eA*eA*eG*eA*eT*e[5mC]*eA*eG*eA*eT*e[5mC]*e[5mC]*eT*eT*eG) [compound 356231]" observable="mir-15a pri-miRNA expression % UTC" assay_result=811

In plain terms, 327901 (antisense eT*eG*eA*eG*e[5mC]*eT*eA*e[5mC]*eA*eG*eT*eG*e[5mC]*eT*eT*e[5mC]*eA*eT*e[5mC]*eT*e[5mC]*eA) [compound 327901] has a documented mir-15a pri-miRNA expression % UTC of 132

###

Tested on: Glut4
Assay: Glut4 mRNA expression in adipocytes (real-time PCR)
Format: cell-based, human
Details: differentiating adipocytes transfected with oligomeric compound; Table 75
In the oligonucleotide strings, read from the 5' end, every base follows the letter of its sugar. An asterisk marks phosphorothioate; unmarked linkages are phosphodiester. Other units and linkages are bracketed, terminal groups are in braces. A string of capitals states the bases alone. e = 2'-O-(2-methoxyethyl) (MOE); [5mC] = 5-methylcytosine
observable: GLUT4 mRNA

In plain terms, 328111 (antisense eT*e[5mC]*e[5mC]*eG*eA*eG*eT*e[5mC]*eG*eG*eA*eG*eG*eA*eG*eG*eA*eG*eG*eA*eA) [compound 328111] has a documented GLUT4 mRNA of 50 percentage of untreated control (UTC)

###

// reported HSL mRNA per item
System: HSL
Experiment: HSL mRNA expression in adipocytes (real-time PCR)
Type: cell-based, human
Conditions: differentiating adipocytes transfected with oligomeric compound; Table 75
In the oligonucleotide strings, read from the 5' end, every base follows the letter of its sugar. An asterisk marks phosphorothioate; unmarked linkages are phosphodiester. Other units and linkages are bracketed, terminal groups are in braces. A string of capitals states the bases alone. e = 2'-O-(2-methoxyethyl) (MOE); [5mC] = 5-methylcytosine

Please review the following examples before continuing.
substance="327923 (antisense eG*eA*eA*eA*eG*eA*eG*eA*e[5mC]*e[5mC]*eG*eG*eT*eT*e[5mC]*eA*e[5mC]*eT*eG*eT*eG*eA) [compound 327923]" observable="HSL mRNA" assay_result="64 percentage of untreated control (UTC)"
substance="340356 (antisense CUCAAUAGACUGUGAGCUCCUU; all 2'-MOE, all phosphorothioate, methylation of C and T or U not given here) [compound 340356]" observable="HSL mRNA" assay_result="59 percentage of untreated control (UTC)"
substance="328104 (antisense eT*eA*eT*eG*eA*eT*eA*eG*e[5mC]*eT*eT*e[5mC]*e[5mC]*e[5mC]*e[5mC]*eA*eT*eG*eT*eA*eA) [compound 328104]" observable="HSL mRNA" assay_result="81 percentage of untreated control (UTC)"
substance="327886 (antisense e[5mC]*eG*e[5mC]*eG*eT*eA*e[5mC]*e[5mC]*eA*eA*eA*eA*eG*eT*eA*eA*eT*eA*eA*eT*eG) [compound 327886]" observable="HSL mRNA" assay_result="22 percentage of untreated control (UTC)"
substance="344338 (antisense AUGCCCUUUUAACAUUGCACUG; all 2'-MOE, all phosphorothioate, methylation of C and T or U not given here) [compound 344338]" observable="HSL mRNA" assay_result="89 percentage of untreated control (UTC)"
substance="327920 (antisense eG*eA*eG*eA*e[5mC]*e[5mC]*e[5mC]*eA*eG*eT*eA*eG*e[5mC]*e[5mC]*eA*eG*eA*eT*eG*eT*eA*eG*e[5mC]*eT) [compound 327920]" observable="HSL mRNA" assay_result="14 percentage of untreated control (UTC)"
substance="348119 (UCCAUAAAGUAGGAAACACUACA; anti-miR; all 2'-MOE, all phosphorothioate, methylation of C and T or U not given here) [compound 348119]" observable="HSL mRNA" assay_result="76 percentage of untreated control (UTC)"
substance="346689 (CAUCAUUACCAGGCAGUAUUAGAG; all 2'-MOE, all phosphorothioate, methylation of C and T or U not given here) [compound 346689]" observable="HSL mRNA" assay_result="63 percentage of untreated control (UTC)"

Now consider a different substance.
In plain terms, 327968 (antisense e[5mC]*eA*eA*eT*eG*e[5mC]*eA*eA*e[5mC]*eA*eG*e[5mC]*eA*eA*eT*eG*e[5mC]*eA*e[5mC]) [compound 327968] has a documented HSL mRNA of 79 percentage of untreated control (UTC)
